Consider the following compounds; for each one, report its pIC50.
Experimental target: human TRPV4 (Homo sapiens)
Construct: expressed in transfected cells; host or cells: BHK/AC9 cells transduced with BacMam virus
Protocol text: FLIPR assay for hTRPV4 expressed in BHK cells: inhibition of Agonist Compound-induced calcium signal
Type: cell-based
Details: hTRPV4 in BHK/AC9 cells, FLIPR calcium signal, agonist at EC80; reported as range class; read-out: IC50
pIC50: −log10 of the molar value. Where a name gives a salt, the structure may show the parent alone.

[Q] Which pIC50 is listed for N#Cc1ccc(O[C@H]2CN(S(=O)(=O)c3ccc(Cl)c4nonc34)C[C@@]2(O)CO)cc1F [Example 59] ?
[A] 7.00 to 8.00

[Q] Please answer likewise for N#Cc1ccc(O[C@H]2CN(S(=O)(=O)c3cccc(Cl)c3Cl)C[C@@]2(O)CO)cc1F [Example 94]
[A] 7.00 to 8.00

[Q] Please answer likewise for N#Cc1cc(Cl)ccc1S(=O)(=O)N1C[C@H](Oc2ccc(F)c(F)c2F)[C@](O)(CO)C1 [Example 23]
[A] 8.00 to 10.00

[Q] Please answer likewise for N#Cc1ccc(O[C@H]2CN(S(=O)(=O)c3ccc(I)cn3)C[C@@]2(O)CN)cc1F [Example 250]
[A] 8.00 to 10.00

[Q] Please answer likewise for COc1cc(C#N)ccc1O[C@H]1CN(S(=O)(=O)c2ccc(C(F)(F)F)cc2C#N)C[C@@]1(O)CO [Example 10]
[A] 7.00 to 8.00

[Q] Please answer likewise for CC#Cc1ccc(S(=O)(=O)N2C[C@H](Oc3ccc(C#N)c(F)c3)[C@](O)(CO)C2)cc1 [Example 222]
[A] 8.00 to 10.00

[Q] Please answer likewise for N#Cc1cc(C(F)(F)F)ccc1S(=O)(=O)N1C[C@H](Oc2ccc(Cl)cc2)[C@](O)(CO)C1 [Example 6]
[A] 8.00 to 10.00

[Q] Please answer likewise for N#Cc1ccc(O[C@H]2CN(S(=O)(=O)c3ccc(OC(F)F)cn3)C[C@@]2(O)CN)cc1F [Example 247]
[A] 7.00 to 8.00

[Q] Please answer likewise for N#Cc1ccc(O[C@H]2CN(S(=O)(=O)c3ccc(C(F)(F)F)cc3Cl)C[C@@]2(O)CO)cc1F [Example 63]
[A] 8.00 to 10.00

[Q] Please answer likewise for Cc1nc(C#N)ccc1S(=O)(=O)N1C[C@H](Oc2ccc(C#N)c(F)c2)[C@](O)(CO)C1 [Example 131]
[A] 7.00 to 8.00

[Q] Please answer likewise for N#Cc1ccc(O[C@H]2CN(S(=O)(=O)c3ccc(C#N)nc3)C[C@@]2(O)CO)c(OCC(F)(F)F)c1 [Example 184]
[A] 7.00 to 8.00

[Q] Please answer likewise for N#Cc1ccc(O[C@H]2CN(S(=O)(=O)c3c(Cl)cc(Cl)cc3Cl)C[C@@]2(O)CO)cn1 [Example 76]
[A] 7.00 to 8.00

[Q] Please answer likewise for N#Cc1ccc(O[C@H]2CN(S(=O)(=O)c3ccc(C(F)(F)F)cc3C#N)C[C@@]2(O)CO)cc1 [Example 29]
[A] 8.00 to 10.00

[Q] Please answer likewise for N#CCc1cccc(O[C@H]2CN(S(=O)(=O)c3ccc(C(F)(F)F)cc3C#N)C[C@@]2(O)CO)c1 [Example 33]
[A] 7.00 to 8.00

[Q] Please answer likewise for N#Cc1cc(F)c(O[C@H]2CN(S(=O)(=O)c3ccc(C(F)(F)F)cc3C#N)C[C@@]2(O)CO)cc1F [Example 19]
[A] 8.00 to 10.00

[Q] Please answer likewise for CC(C)Oc1cc(C#N)ccc1O[C@H]1CN(S(=O)(=O)c2ccc(C(F)(F)F)cc2C#N)C[C@@]1(O)CO [Example 44]
[A] 8.00 to 10.00

[Q] Please answer likewise for N#Cc1ccc(O[C@H]2CN(S(=O)(=O)c3ccccc3C#N)C[C@]2(O)CO)cc1F [Example 137]
[A] 7.00 to 8.00

[Q] Please answer likewise for COc1ccc(S(=O)(=O)N2C[C@H](Oc3ccc(C#N)c(F)c3)[C@@](O)(CO)C2)c(C#N)c1 [Example 145]
[A] 7.00 to 8.00

[Q] Please answer likewise for CC(C)(O)[C@]1(O)CN(S(=O)(=O)c2ccc(Cl)cn2)C[C@@H]1Oc1ccc(C#N)c(F)c1 [Example 214]
[A] 7.00 to 8.00

[Q] Please answer likewise for N#Cc1ccc(O[C@H]2CN(S(=O)(=O)c3ccc(C(F)(F)F)nc3)C[C@@]2(O)CN)cc1F [Example 245, Hydrochloride]
[A] 7.00 to 8.00

[Q] Please answer likewise for CC(C)C[C@@H](O)[C@]1(O)CN(S(=O)(=O)c2ccc(Cl)cn2)C[C@@H]1Oc1ccc(C#N)c(F)c1 [Example 197]
[A] 8.00 to 10.00

[Q] Please answer likewise for N#Cc1ccc(O[C@H]2CN(S(=O)(=O)c3cccnc3C#N)C[C@]2(O)CO)cc1F [Example 140]
[A] 7.00 to 8.00

[Q] Please answer likewise for CC(C)(C)C#Cc1ccc(S(=O)(=O)N2C[C@H](Oc3ccc(C#N)c(F)c3)[C@](O)(CO)C2)nc1 [Example 229]
[A] 7.00 to 8.00

[Q] Please answer likewise for N#Cc1ccc(O[C@H]2CN(S(=O)(=O)c3ccc(OCC(F)(F)F)nn3)C[C@@]2(O)CO)cc1F [Example 133]
[A] 7.00 to 8.00

[Q] Please answer likewise for N#Cc1ccc(O[C@H]2CN(S(=O)(=O)c3ccccc3C#N)C[C@@]2(O)CO)cc1F [Example 61]
[A] 8.00 to 10.00

[Q] Please answer likewise for N#Cc1ccc(O[C@H]2CN(S(=O)(=O)c3cccc(Cl)c3C#N)C[C@@]2(O)CO)cc1F [Example 95]
[A] 8.00 to 10.00

[Q] Please answer likewise for N#Cc1ccc(S(=O)(=O)N2C[C@H](Oc3ccc(C#N)c(F)c3)[C@](O)(CO)C2)cc1 [Example 71]
[A] 7.00 to 8.00

[Q] Please answer likewise for CC(C)COc1cc(C#N)c(F)cc1O[C@H]1CN(S(=O)(=O)c2ccccc2C#N)C[C@@]1(O)CO [Example 179]
[A] 8.00 to 10.00

[Q] Please answer likewise for CC(C)COc1cc(C#N)c(F)cc1O[C@H]1CN(S(=O)(=O)c2ccc(C#N)nc2)C[C@@]1(O)CO [Example 181]
[A] 8.00 to 10.00

* * *

Experimental target: human TRPV4 (Homo sapiens)
Construct: expressed in transfected cells; host or cells: BHK/AC9 cells transduced with BacMam virus
Protocol text: FLIPR assay for hTRPV4 expressed in BHK cells: inhibition of Agonist Compound-induced calcium signal
Type: cell-based
Details: hTRPV4 FLIPR assay; average in at least one set of experimental runs; read-out: average IC50
Test readout: IC50 (nM)
Provide the reading as a plain figure in nM.

[Q] Which IC50 is listed for C[C@H](O)[C@@]1(O)CN(S(=O)(=O)c2ccc(C(F)(F)F)cc2C#N)C[C@@H]1Oc1ccc(C#N)c(F)c1 ?
[A] 40

[Q] Please answer likewise for N#Cc1cc(C(F)(F)F)ccc1S(=O)(=O)N1C[C@H](Oc2ccc(Cl)cc2)[C@](O)(CO)C1
[A] 3

* * *

Experimental target: human TRPV4 (Homo sapiens)
Construct: expressed in transfected cells; host or cells: BHK/AC9 cells transduced with BacMam virus
Protocol text: FLIPR assay for hTRPV4 expressed in BHK cells: inhibition of Agonist Compound-induced calcium signal
Assay type: cell-based
Details: IC50, hTRPV4 in BHK/AC9 cells, FLIPR calcium signal, agonist at EC80; reported as range class
pIC50: −log10 of the molar value.
Test readout: pIC50

[Q] Which pIC50 is listed for C[Si](C)(C)C#Cc1ccc(S(=O)(=O)N2C[C@H](Oc3ccc(C#N)c(F)c3)[C@](O)(CO)C2)c(C#N)c1 ?
[A] 8.00 to 10.00

* * *

Experimental target: human TRPV4 (Homo sapiens, UniProt Q9HBA0)
Construct: expressed in transfected cells; host or cells: BHK/AC9 cells transduced with BacMam virus
Sequence (Q9HBA0 whole entry): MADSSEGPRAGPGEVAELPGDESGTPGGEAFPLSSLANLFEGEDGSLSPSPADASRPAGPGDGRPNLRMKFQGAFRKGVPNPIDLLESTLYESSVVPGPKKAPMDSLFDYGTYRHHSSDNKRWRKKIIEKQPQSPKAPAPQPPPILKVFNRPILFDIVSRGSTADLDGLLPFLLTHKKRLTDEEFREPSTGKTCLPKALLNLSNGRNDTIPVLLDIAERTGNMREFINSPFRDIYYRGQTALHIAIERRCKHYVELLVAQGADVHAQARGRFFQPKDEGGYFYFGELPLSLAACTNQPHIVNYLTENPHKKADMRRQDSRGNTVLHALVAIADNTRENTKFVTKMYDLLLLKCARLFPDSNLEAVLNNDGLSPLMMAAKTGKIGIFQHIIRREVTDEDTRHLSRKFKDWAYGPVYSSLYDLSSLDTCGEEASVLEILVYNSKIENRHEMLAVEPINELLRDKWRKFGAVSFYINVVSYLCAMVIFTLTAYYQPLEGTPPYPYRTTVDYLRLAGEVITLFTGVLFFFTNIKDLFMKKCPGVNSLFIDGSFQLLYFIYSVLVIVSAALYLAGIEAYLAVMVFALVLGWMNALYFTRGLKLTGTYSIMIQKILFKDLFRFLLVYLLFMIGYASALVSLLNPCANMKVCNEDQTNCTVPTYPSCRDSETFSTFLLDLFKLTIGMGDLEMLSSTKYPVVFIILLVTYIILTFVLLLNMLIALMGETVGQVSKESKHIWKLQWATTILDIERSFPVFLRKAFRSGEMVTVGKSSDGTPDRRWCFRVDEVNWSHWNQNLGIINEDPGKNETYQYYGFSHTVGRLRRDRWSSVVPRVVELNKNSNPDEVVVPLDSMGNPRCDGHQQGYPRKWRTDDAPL
Protocol text: FLIPR assay for hTRPV4 expressed in BHK cells: inhibition of Agonist Compound-induced calcium signal
Format: cell-based
Details: hTRPV4 in BHK/AC9 cells, FLIPR calcium signal, agonist at EC80; reported as range class; read-out: IC50
pIC50: −log10 of the molar value.
Test readout: pIC50

[Q] Which pIC50 is listed for CC(=O)c1ccc(S(=O)(=O)N2C[C@H](Oc3ccc(C#N)c(F)c3)[C@](O)(CO)C2)c(C#N)c1 ?
[A] 7.00 to 8.00

[Q] Please answer likewise for N#Cc1ccccc1S(=O)(=O)N1C[C@H](Oc2ccc(C(F)(F)F)cc2)[C@](O)(CO)C1
[A] 7.00 to 8.00

[Q] Please answer likewise for C#Cc1ccccc1S(=O)(=O)N1C[C@H](Oc2ccc(C#N)c(F)c2)[C@](O)(CO)C1
[A] 7.00 to 8.00

[Q] Please answer likewise for N#Cc1ccc(O[C@H]2CN(S(=O)(=O)c3ccc(C(F)(F)F)nc3)C[C@@]2(O)CO)cc1F
[A] 6.00 to 7.00

[Q] Please answer likewise for O=S(=O)(c1ccc(Cl)cc1Cl)N1C[C@H](Oc2ccc(C(F)(F)F)nc2)[C@](O)(CO)C1
[A] 7.00 to 8.00

[Q] Please answer likewise for CC#Cc1ccc(S(=O)(=O)N2C[C@H](Oc3ccc(C#N)c(F)c3)[C@](O)(CO)C2)cn1
[A] 7.00 to 8.00

[Q] Please answer likewise for CCCCOc1cc(C#N)ccc1O[C@H]1CN(S(=O)(=O)c2ccc(C(F)(F)F)cc2C#N)C[C@@]1(O)CO
[A] 8.00 to 10.00
